# Test system: 996289-038-R-J1-PDC spheroid viability
# Assay info: Anticancer human tumor 996289-038-R-J1-PDC patient-derived colon adenocarcinoma cell line growth inhibition [PI3K]
# Measurement conditions: second compound 0.316 µM; first compound 0.1 µM; stronger effect = lower value; spheroids with HUVEC and MSC
In this scheme, each record receives a class according to its viability, T/C; the ranges are bin 1: < 40%; bin 2: ≥ 40% and < 80%; bin 3: ≥ 80%

Form field 'band' for CC(C)NCC(C(=O)N1CCN(c2ncnc3c2C(C)CC3O)CC1)c1ccc(Cl)cc1 (stereo unspecified) + CC(Nc1ncnc2nc[nH]c12)c1cc2cccc(Cl)c2c(=O)n1-c1ccccc1
bin 3

Form field 'band' for Cn1nccc1Nc1nccc(-c2ccn(C(CO)c3ccc(Cl)c(F)c3)c(=O)c2)n1 (stereo unspecified) + CC(Nc1ncnc2nc[nH]c12)c1cc2cccc(Cl)c2c(=O)n1-c1ccccc1
bin 3

Form field 'band' for CC1(C)CCC(Nc2ncc(C(F)(F)F)c(-c3c[nH]c4c(P(C)(C)=O)c(C#N)ccc34)n2)CN1 (stereo unspecified) + COc1c(OCCCN2CCOCC2)ccc2c3n(c(=NC(=O)c4cnc(N)nc4)nc12)CCN3
bin 1

Form field 'band' for C#Cc1c(F)ccc2cc(O)cc(-c3ncc4c(N5CC6CCC(C5)N6)nc(OCC56CCCN5CC(F)C6)nc4c3F)c12 (stereo unspecified) + CC(Nc1ccc2c(c1)OCCn1cc(N3C(=O)OCC3C(F)F)nc1-2)C(N)=O
bin 2

Form field 'band' for CNC(=O)c1ccc(N2C(=S)N(c3ccc(C#N)c(C(F)(F)F)c3)C(=O)C2(C)C)cc1F + COc1c(OCCCN2CCOCC2)ccc2c3n(c(=NC(=O)c4cnc(N)nc4)nc12)CCN3
bin 1

Form field 'band' for CNC(=O)c1ccc(N2C(=S)N(c3ccc(C#N)c(C(F)(F)F)c3)C(=O)C2(C)C)cc1F + CC(Nc1ncnc2nc[nH]c12)c1cc2cccc(Cl)c2c(=O)n1-c1ccccc1
bin 3

Form field 'band' for CCCS(=O)(=O)Nc1ccc(F)c(C(=O)c2c[nH]c3ncc(-c4ccc(Cl)cc4)cc23)c1F + COc1c(OCCCN2CCOCC2)ccc2c3n(c(=NC(=O)c4cnc(N)nc4)nc12)CCN3
bin 2

Form field 'band' for CCCS(=O)(=O)Nc1ccc(F)c(C(=O)c2c[nH]c3ncc(-c4ccc(Cl)cc4)cc23)c1F + CC(Nc1ncnc2nc[nH]c12)c1cc2cccc(Cl)c2c(=O)n1-c1ccccc1
bin 3

Form field 'band' for CC1(C)CCC(Nc2ncc(C(F)(F)F)c(-c3c[nH]c4c(P(C)(C)=O)c(C#N)ccc34)n2)CN1 (stereo unspecified) + CC(Nc1ncnc2nc[nH]c12)c1cc2cccc(Cl)c2c(=O)n1-c1ccccc1
bin 3

Form field 'band' for CC(C)n1nc(-c2ccc3oc(N)nc3c2)c2c(N)ncnc21 + CC(Nc1ncnc2nc[nH]c12)c1cc2cccc(Cl)c2c(=O)n1-c1ccccc1
bin 1

Form field 'band' for Cn1ncnc1[C@H]1c2n[nH]c(=O)c3cc(F)cc(c23)N[C@@H]1c1ccc(F)cc1 + Cc1nc(NC(=O)N2CCCC2C(N)=O)sc1-c1ccnc(C(C)(C)C(F)(F)F)c1
bin 2

Form field 'band' for Cn1nccc1Nc1nccc(-c2ccn(C(CO)c3ccc(Cl)c(F)c3)c(=O)c2)n1 (stereo unspecified) + Cc1nc(NC(=O)N2CCCC2C(N)=O)sc1-c1ccnc(C(C)(C)C(F)(F)F)c1
bin 3

Form field 'band' for CC1(C)CCC(CN2CCN(c3ccc(C(=O)NS(=O)(=O)c4ccc(NCC5CCOCC5)c([N+](=O)[O-])c4)c(Oc4cnc5[nH]ccc5c4)c3)CC2)=C(c2ccc(Cl)cc2)C1 + COc1c(OCCCN2CCOCC2)ccc2c3n(c(=NC(=O)c4cnc(N)nc4)nc12)CCN3
bin 1

Form field 'band' for CC1(C)CCC(Nc2ncc(C(F)(F)F)c(-c3c[nH]c4c(P(C)(C)=O)c(C#N)ccc34)n2)CN1 (stereo unspecified) + CC(Nc1ccc2c(c1)OCCn1cc(N3C(=O)OCC3C(F)F)nc1-2)C(N)=O
bin 2

Form field 'band' for CC(Cn1ccc(-c2ccc(C#N)c(Cl)c2)n1)NC(=O)c1cc(C(C)O)[nH]n1 (stereo unspecified) + CC(Nc1ncnc2nc[nH]c12)c1cc2cccc(Cl)c2c(=O)n1-c1ccccc1
bin 3

Form field 'band' for Cn1nccc1Nc1nccc(-c2ccn(C(CO)c3ccc(Cl)c(F)c3)c(=O)c2)n1 (stereo unspecified) + CC(Nc1ccc2c(c1)OCCn1cc(N3C(=O)OCC3C(F)F)nc1-2)C(N)=O
bin 2

Form field 'band' for CCN1CCN(Cc2ccc(Nc3ncc(F)c(-c4cc(F)c5nc(C)n(C(C)C)c5c4)n3)nc2)CC1 + COc1c(OCCCN2CCOCC2)ccc2c3n(c(=NC(=O)c4cnc(N)nc4)nc12)CCN3
bin 1

Form field 'band' for CC(=O)c1c(C)c2cnc(Nc3ccc(N4CCNCC4)cn3)nc2n(C2CCCC2)c1=O + CC(Nc1ccc2c(c1)OCCn1cc(N3C(=O)OCC3C(F)F)nc1-2)C(N)=O
bin 2

Form field 'band' for CC(C)n1nc(-c2ccc3oc(N)nc3c2)c2c(N)ncnc21 + CC(Nc1ccc2c(c1)OCCn1cc(N3C(=O)OCC3C(F)F)nc1-2)C(N)=O
bin 1

---

# Test system: 996289-038-R-J1-PDC spheroid viability
# Assay info: Anticancer human tumor 996289-038-R-J1-PDC cell line growth inhibition [PI3K];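 also: spheroids exposed to compounds for seven days before viability read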;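 as to viability, T/C: luminescence used as a proxy for viable cell amount; percent viability relative to DMSO vehicle control as 100%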
# Measurement conditions: second compound 3.16 µM; first compound 0.316 µM; stronger effect = lower value; spheroids with HUVEC and MSC
Outcome measure: viability, T/C (%)
Enter your answer as a number in %; do not include the unit.

Endpoint output: viability, T/C of CC(C)NCC(C(=O)N1CCN(c2ncnc3c2C(C)CC3O)CC1)c1ccc(Cl)cc1 (stereo not drawn) + CC(Nc1ncnc2nc[nH]c12)c1cc2cccc(Cl)c2c(=O)n1-c1ccccc1 . Value?
85.4

Endpoint output: viability, T/C of CC(Cn1ccc(-c2ccc(C#N)c(Cl)c2)n1)NC(=O)c1cc(C(C)O)[nH]n1 (stereo not drawn) + Cc1nc(NC(=O)N2CCCC2C(N)=O)sc1-c1ccnc(C(C)(C)C(F)(F)F)c1 . Value?
66.6

Endpoint output: viability, T/C of Cn1ncc(Cl)c1-c1cc(C(=O)NC(CN)Cc2cccc(F)c2)sc1Cl (stereo not drawn) + Cc1nc(NC(=O)N2CCCC2C(N)=O)sc1-c1ccnc(C(C)(C)C(F)(F)F)c1 . Value?
59.2

---

# Test system: 996289-038-R-J1-PDC spheroid viability
# Assay info: Anticancer human tumor 996289-038-R-J1-PDC cell line growth inhibition [PI3K];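 also: spheroids exposed to compounds for seven days before viability read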
# Measurement conditions: curve of first compound; second compound 1 µM; spheroids with HUVEC and MSC
Please respond with reported IC50 for every item in the list.

Endpoint output: IC50 of CCN1CCN(Cc2ccc(Nc3ncc(F)c(-c4cc(F)c5nc(C)n(C(C)C)c5c4)n3)nc2)CC1 + COc1c(OCCCN2CCOCC2)ccc2c3n(c(=NC(=O)c4cnc(N)nc4)nc12)CCN3 . Value?
< 3.16 nM

Endpoint output: IC50 of Cn1cnc2c(F)c(Nc3ccc(Br)cc3Cl)c(C(=O)NOCCO)cc21 + CC(Nc1ccc2c(c1)OCCn1cc(N3C(=O)OCC3C(F)F)nc1-2)C(N)=O . Value?
25.2 nM

Endpoint output: IC50 of CNC(=O)c1ccc(N2C(=S)N(c3ccc(C#N)c(C(F)(F)F)c3)C(=O)C2(C)C)cc1F + CC(Nc1ccc2c(c1)OCCn1cc(N3C(=O)OCC3C(F)F)nc1-2)C(N)=O . Value?
> 10000 nM

Endpoint output: IC50 of CNC(=O)c1ccc(N2C(=S)N(c3ccc(C#N)c(C(F)(F)F)c3)C(=O)C2(C)C)cc1F + COc1c(OCCCN2CCOCC2)ccc2c3n(c(=NC(=O)c4cnc(N)nc4)nc12)CCN3 . Value?
< 31.6 nM

Endpoint output: IC50 of Cn1ncnc1[C@H]1c2n[nH]c(=O)c3cc(F)cc(c23)N[C@@H]1c1ccc(F)cc1 + CC(Nc1ccc2c(c1)OCCn1cc(N3C(=O)OCC3C(F)F)nc1-2)C(N)=O . Value?
> 100 nM

Endpoint output: IC50 of C[C@@H](NC(=O)c1ncnc(N)c1Cl)c1ncc(C(=O)Nc2cc(C(F)(F)F)c(Cl)cn2)s1 + Cc1nc(NC(=O)N2CCCC2C(N)=O)sc1-c1ccnc(C(C)(C)C(F)(F)F)c1 . Value?
> 10000 nM

Endpoint output: IC50 of Cn1ncc(Cl)c1-c1cc(C(=O)NC(CN)Cc2cccc(F)c2)sc1Cl (stereo not given) + CC(Nc1ccc2c(c1)OCCn1cc(N3C(=O)OCC3C(F)F)nc1-2)C(N)=O . Value?
352 nM

Endpoint output: IC50 of CC1(C)CCC(CN2CCN(c3ccc(C(=O)NS(=O)(=O)c4ccc(NCC5CCOCC5)c([N+](=O)[O-])c4)c(Oc4cnc5[nH]ccc5c4)c3)CC2)=C(c2ccc(Cl)cc2)C1 + CC(Nc1ncnc2nc[nH]c12)c1cc2cccc(Cl)c2c(=O)n1-c1ccccc1 . Value?
> 10000 nM

Endpoint output: IC50 of Cn1ncc(Cl)c1-c1cc(C(=O)NC(CN)Cc2cccc(F)c2)sc1Cl (stereo not given) + CC(Nc1ncnc2nc[nH]c12)c1cc2cccc(Cl)c2c(=O)n1-c1ccccc1 . Value?
9380 nM

Endpoint output: IC50 of CC1(C)CCC(CN2CCN(c3ccc(C(=O)NS(=O)(=O)c4ccc(NCC5CCOCC5)c([N+](=O)[O-])c4)c(Oc4cnc5[nH]ccc5c4)c3)CC2)=C(c2ccc(Cl)cc2)C1 + COc1c(OCCCN2CCOCC2)ccc2c3n(c(=NC(=O)c4cnc(N)nc4)nc12)CCN3 . Value?
< 31.6 nM
